- Tested on: Influenza A virus
- TEST DETAILS: microbe, parasite or virus in culture
- Type: cell-based
- EXPERIMENTAL CONDITIONS: read-out: IC50 Influenza A virus
pIC50: −log10 of the molar value.
READOUT: pIC50

Name the recorded pIC50 for `CCCN(CCC)CCSc1nnc2c(n1)[nH]c1ccccc12` . < 4.30

---

- Test system: Coxsackie B3 virus
- TEST DETAILS: microbe, parasite or virus in culture
- Assay type: cell-based
- EXPERIMENTAL CONDITIONS: Enterovirus B, B3, read-out: IC50 Coxsackie B3 virus
READOUT: IC50

SAMPLE SMILES	IC50
c1ccc2c(c1)[nH]c1nc(SCCN3CCCCCC3)nnc12	> 50 µM

Okay, now this compound:
Name the recorded IC50 for `c1ccc2c(c1)[nH]c1nc(SCCN3CCCCC3)nnc12` . > 50 µM
